procedure details: Stability in Simulated Gastric Fluid (SGF)
Assay type: in vitro ADME
Parameters: key: % parent compound remaining relative to 0-minute sample
measurement conditions: bare number, unit or time not given
parameter: SGF
Just the number, please.

// known answers, use as guide
INSERT INTO measurements (record_smiles, measured_number) VALUES
  ('CC(C)OCCn1c(=S)n(COC(=O)CCCCOC(=O)[C@H](N)C(C)C)c(=O)c2c1ccn2COC(=O)CCCCOC(=O)[C@H](N)C(C)C.O=C(O)C(F)(F)F.O=C(O)C(F)(F)F', 99),
  ('CC(C)OCCn1c(=S)[nH]c(=O)c2c1ccn2COC(=O)CCCCOC(=O)[C@@H](N)C(C)C.O=C(O)C(F)(F)F', 99),
  ('CC(C)OCCn1c(=S)n(COC(=O)CCCCOC(=O)[C@@H](N)C(C)C)c(=O)c2c1ccn2COC(=O)CCCCOC(=O)[C@@H](N)C(C)C.O=C(O)C(F)(F)F.O=C(O)C(F)(F)F', 98),
  ('CC(C)OCCn1c(=S)[nH]c(=O)c2c1ccn2COC(=O)CCCCOC(=O)[C@H](N)Cc1ccccc1.O=C(O)C(F)(F)F', 99),
  ('CC(C)OCCn1c(=S)[nH]c(=O)c2c1ccn2COC(=O)CCCCOC(=O)[C@H](Cc1ccccc1)NC(=O)OC(C)(C)C', 90),
  ('CC(C)OCCn1c(=S)[nH]c(=O)c2c1ccn2COC(=O)CCCCOC(=O)[C@@H](N)Cc1ccccc1.O=C(O)C(F)(F)F', 100),
  ('CC(C)OCCn1c(=S)[nH]c(=O)c2c1ccn2COC(=O)CCCCOC(=O)[C@H](N)C(C)C.O=C(O)C(F)(F)F', 99);

# evaluate next
Specify reported SGF for the molecule shown: "CC(C)OCCn1c(SCO)nc(=O)c2[nH]ccc21"
93

====

procedure details: Stability in Simulated Intestinal Fluid (SIF)
Format: in vitro ADME
measurement conditions: % remaining at 1 h in simulated intestinal fluid
# reported SIF; entries follow
Number in % remaining, nothing else.

For orientation, consider the following solved cases.
INSERT INTO results (compound, parameter, measured_number) VALUES
  ('CC(C)OCCn1c(=S)[nH]c(=O)c2c1ccn2COC(=O)CCNC(=O)[C@@H]1CCC(=O)N1C(=O)OCc1ccccc1.O=C(O)C(F)(F)F', 'SIF', 3),
  ('CC(C)OCCn1c(=S)[nH]c(=O)c2c1ccn2COC(=O)CCCCNC(=O)CN(C)C(=O)OC(C)(C)C.O=C(O)C(F)(F)F', 'SIF', 98),
  ('COC(=O)N1CCCC1C(=O)NCCCCC(=O)OCn1ccc2c1c(=O)[nH]c(=S)n2CCOC(C)C.O=C(O)C(F)(F)F (stereo not shown)', 'SIF', 92),
  ('CC(C)OCCn1c(=S)[nH]c(=O)c2c1ccn2COC(=O)CCNC(=O)[C@@H]1CCCN1C(N)=O.O=C(O)C(F)(F)F', 'SIF', 99);

Annotate the compound CCOC(=O)N1CCCC1C(=O)NCCCCC(=O)OCn1ccc2c1c(=O)[nH]c(=S)n2CCOC(C)C.O=C(O)C(F)(F)F (stereo not shown) with its measured SIF.
89

Answer with the recorded SIF for the compound listed here: "CC(C)OCCn1c(=S)[nH]c(=O)c2c1ccn2COC(=O)OC1CN(C(=O)OC(C)(C)C)C1"
17

Return the recorded SIF value; entry: "CC(C)OCCn1c(=S)[nH]c(=O)c2c1ccn2COC(=O)CCCCNC(=O)[C@H](Cc1c[nH]c2ccccc12)NC(=O)OC(C)(C)C.O=C(O)C(F)(F)F"
46

Supply reported SIF belonging to this compound: "CC(C)OCCn1c(=S)[nH]c(=O)c2c1ccn2COC(=O)CCCCNC(=O)CN(C)C(=O)CNC(=O)OC(C)(C)C.O=C(O)C(F)(F)F"
96

Retrieve SIF measured for "CSCC[C@H](NC(=O)OCC1c2ccccc2-c2ccccc21)C(=O)NCCC(=O)OCn1ccc2c1c(=O)[nH]c(=S)n2CCOC(C)C.O=C(O)C(F)(F)F" and print it.
75

Hey, just so you know, these numbers are from patent US20240067651A1.
